Data credit: ChEMBL document CHEMBL4387773

# Tested on: Nuclear receptor subfamily 1 group I member 2 (Homo sapiens, UniProt O75469)
# Sequence (O75469 whole entry): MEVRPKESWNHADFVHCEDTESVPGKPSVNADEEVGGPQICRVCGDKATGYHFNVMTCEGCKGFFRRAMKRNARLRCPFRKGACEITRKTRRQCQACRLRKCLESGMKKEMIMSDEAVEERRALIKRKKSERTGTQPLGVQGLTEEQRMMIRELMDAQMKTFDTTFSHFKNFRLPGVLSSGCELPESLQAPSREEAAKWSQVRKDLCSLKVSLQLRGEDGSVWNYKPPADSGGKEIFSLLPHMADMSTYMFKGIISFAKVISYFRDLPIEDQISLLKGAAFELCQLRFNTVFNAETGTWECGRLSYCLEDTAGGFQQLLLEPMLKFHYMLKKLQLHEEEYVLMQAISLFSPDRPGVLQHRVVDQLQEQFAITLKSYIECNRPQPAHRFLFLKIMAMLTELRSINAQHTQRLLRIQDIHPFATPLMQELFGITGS
# Method notes: Transactivation of PXR (unknown origin) expressed in human HepG2 cells
# Format: cell-based
Here the recorded EC50 is given for each entry.

- Compound: "O=C(C1CCS(=O)(=O)C1)N1CC[C@](c2ccc(C(F)(C(F)(F)F)C(F)(F)F)cc2)(S(=O)(=O)c2ccc(F)cc2)C1 (stereo in doubt; 32)"
  Tested on: "Nuclear receptor subfamily 1 group I member 2 (Homo sapiens, UniProt O75469)"
  EC50: "> 13 µM"
- Compound: "COC[C@]1(C(=O)N2CC[C@](c3ccc(C(F)(C(F)(F)F)C(F)(F)F)cc3)(S(=O)(=O)c3ccc(F)cc3)C2)CC[C@H](C(=O)O)CC1"
  Tested on: "Nuclear receptor subfamily 1 group I member 2 (Homo sapiens, UniProt O75469)"
  EC50: "> 50 µM"
- Compound: "C[C@]1(C(=O)O)CC[C@H](C(=O)N2CC[C@](c3ccc(C(F)(C(F)(F)F)C(F)(F)F)cc3)(S(=O)(=O)c3ccc(F)cc3)C2)CC1"
  Tested on: "Nuclear receptor subfamily 1 group I member 2 (Homo sapiens, UniProt O75469)"
  EC50: "> 50 µM"
- Compound: "O=C([C@H]1CC[C@@](F)(C(=O)O)CC1)N1CC[C@](c2ccc(C(F)(C(F)(F)F)C(F)(F)F)cc2)(S(=O)(=O)c2ccc(F)cc2)C1"
  Tested on: "Nuclear receptor subfamily 1 group I member 2 (Homo sapiens, UniProt O75469)"
  EC50: "> 22 µM"
- Compound: "COC1(C(=O)N2CC[C@](c3ccc(C(F)(C(F)(F)F)C(F)(F)F)cc3)(S(=O)(=O)c3ccc(F)cc3)C2)CCS(=O)(=O)CC1"
  Tested on: "Nuclear receptor subfamily 1 group I member 2 (Homo sapiens, UniProt O75469)"
  EC50: "> 50 µM"
- Compound: "O=C(N1CC[C@](c2ccc(C(F)(C(F)(F)F)C(F)(F)F)cc2)(S(=O)(=O)c2ccc(F)cc2)C1)C1(O)CCS(=O)(=O)CC1"
  Tested on: "Nuclear receptor subfamily 1 group I member 2 (Homo sapiens, UniProt O75469)"
  EC50: "> 50 µM"
- Compound: "CC[C@]1(C(=O)O)CC[C@H](C(=O)N2CC[C@](c3ccc(C(F)(C(F)(F)F)C(F)(F)F)cc3)(S(=O)(=O)c3ccc(F)cc3)C2)CC1"
  Tested on: "Nuclear receptor subfamily 1 group I member 2 (Homo sapiens, UniProt O75469)"
  EC50: "> 50 µM"
- Compound: "O=C(O)C12CCC(C(=O)N3CC[C@](c4ccc(C(F)(C(F)(F)F)C(F)(F)F)cc4)(S(=O)(=O)c4ccc(F)cc4)C3)(CC1)CC2"
  Tested on: "Nuclear receptor subfamily 1 group I member 2 (Homo sapiens, UniProt O75469)"
  EC50: "> 50 µM"
- Compound: "O=C([C@H]1CC[C@H](CO)CC1)N1CC[C@](c2ccc(C(F)(C(F)(F)F)C(F)(F)F)cc2)(S(=O)(=O)c2ccc(F)cc2)C1"
  Tested on: "Nuclear receptor subfamily 1 group I member 2 (Homo sapiens, UniProt O75469)"
  EC50: "> 50 µM"
- Compound: "C[C@]1(C(=O)N2CC[C@](c3ccc(C(F)(C(F)(F)F)C(F)(F)F)cc3)(S(=O)(=O)c3ccc(F)cc3)C2)CC[C@@H](C(=O)O)CC1"
  Tested on: "Nuclear receptor subfamily 1 group I member 2 (Homo sapiens, UniProt O75469)"
  EC50: "> 50 µM"
- Compound: "O=C1NC(=O)C2(CCC(C(=O)N3CC[C@](c4ccc(C(F)(C(F)(F)F)C(F)(F)F)cc4)(S(=O)(=O)c4ccc(F)cc4)C3)CC2)N1 (stereo in doubt; 25)"
  Tested on: "Nuclear receptor subfamily 1 group I member 2 (Homo sapiens, UniProt O75469)"
  EC50: "> 50 µM"
- Compound: "O=C(O)C12CCC(C(=O)N3CC[C@](c4ccc(C(F)(C(F)(F)F)C(F)(F)F)cc4)(S(=O)(=O)c4ccc(F)cc4)C3)(CC1)OC2"
  Tested on: "Nuclear receptor subfamily 1 group I member 2 (Homo sapiens, UniProt O75469)"
  EC50: "> 50 µM"
- Compound: "NC(=O)[C@H]1CC[C@H](C(=O)N2CC[C@](c3ccc(C(F)(C(F)(F)F)C(F)(F)F)cc3)(S(=O)(=O)c3ccc(F)cc3)C2)CC1"
  Tested on: "Nuclear receptor subfamily 1 group I member 2 (Homo sapiens, UniProt O75469)"
  EC50: "> 50 µM"
